Biological target: T1, CD123-Fc重组蛋白 (human, UniProt P26951 19-305)
T1 construct: also called CD123-Fc蛋白; 人CD123-Fc; not shown: Fc part
T1 sequence: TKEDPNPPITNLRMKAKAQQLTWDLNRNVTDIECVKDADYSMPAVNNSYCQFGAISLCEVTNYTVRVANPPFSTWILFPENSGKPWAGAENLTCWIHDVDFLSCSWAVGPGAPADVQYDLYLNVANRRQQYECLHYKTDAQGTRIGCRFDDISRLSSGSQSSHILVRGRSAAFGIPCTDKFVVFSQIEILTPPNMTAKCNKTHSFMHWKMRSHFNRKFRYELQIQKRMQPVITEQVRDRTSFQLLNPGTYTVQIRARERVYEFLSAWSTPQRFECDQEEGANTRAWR
Experiment: FACS staining of CAR T cells with CD123-Fc recombinant protein
measurement type: binding result

# binder, result
records = [
    ("抗CD123 scFv-C5 (in a CAR on T cells) (scFv, Human scFv from phage display; also called 抗-CD123-C5; not shown: rest of the CAR, hinge domain to CD3-zeta domain) scFv: NFMLTQPHSVSESPGKTVTLSCTRSSGSIAGSYVQWYQQRPGSSPTTVIFQDNQRPSGVPDRFSGSIDKSSNSASLTISGLKTEDEADYYCQSYDSNNQVFGGGTKLTVLGGGGSGGGGSGGGGSEVHLVESGGGVVRPGGSLRLSCAASGFTFGDYGMSWVRQAPGKGLEWVSGINWNGGRTGYADSVKGRFTISRDNAKNSLYLQMNSLRAEDTALYYCARARGSGSYFGYMDVWGKGTTVTVSS", "binds"),
    ("抗CD123 scFv-C15 (in a CAR on T cells) (scFv, Human scFv from phage display; not shown: rest of the CAR, hinge domain to CD3-zeta domain) scFv: DIQLTQSPSTLSASVGDRVTISCRASQSISSWLAWYQHKPGKAPKLLIYKTSALEDGVPSRFSGSGSGTEFTLTISSLQPDDFATYFCLHYGSYTFGQGTKVDIKGGGGSGGGGSGGGGSEVQLVESGGGLVNPGGSLRLSCEASGFTFSDYYISWIRQAPGKGLEWISYISGSSTYTDFADSVKGRFTISRDNAKNTVFLQMNSLRAEDTAVYYCARDRRGRFDPWGQGTLVTVSS", "binds"),
    ("抗CD123 scFv-C17 (in a CAR on T cells) (scFv, Human scFv from phage display; not shown: rest of the CAR, hinge domain to CD3-zeta domain) scFv: QSALTQPASVSGSLGQSITISCTGTSSDVGTYDYVSWYQQHPGKAPKLMIYDVTYRPSGVSHRFSGSKSGNTASLTISGLQADDEADYYCQQYNNWPPRYTFGQGTKVEIKGGGGSGGGGSGGGGSQVQLVQSGAEVEKPGASVKLSCTASGYNFNSYYMHWVRLTPGQGLEWMGLINPTNGRTTYAQKFQGRVTMTGDTSTRTVYLALSSLRSEDSALYYCARGSPPHIFDPDFDYWGQGTLVTVSS", "binds"),
]
